Listing of recorded pIC50 by entry.
target desc: Phosphatidylinositol 4,5-bisphosphate 3-kinase catalytic subunit alpha isoform (Homo sapiens)
Sequence (P42336 whole entry, canonical isoform): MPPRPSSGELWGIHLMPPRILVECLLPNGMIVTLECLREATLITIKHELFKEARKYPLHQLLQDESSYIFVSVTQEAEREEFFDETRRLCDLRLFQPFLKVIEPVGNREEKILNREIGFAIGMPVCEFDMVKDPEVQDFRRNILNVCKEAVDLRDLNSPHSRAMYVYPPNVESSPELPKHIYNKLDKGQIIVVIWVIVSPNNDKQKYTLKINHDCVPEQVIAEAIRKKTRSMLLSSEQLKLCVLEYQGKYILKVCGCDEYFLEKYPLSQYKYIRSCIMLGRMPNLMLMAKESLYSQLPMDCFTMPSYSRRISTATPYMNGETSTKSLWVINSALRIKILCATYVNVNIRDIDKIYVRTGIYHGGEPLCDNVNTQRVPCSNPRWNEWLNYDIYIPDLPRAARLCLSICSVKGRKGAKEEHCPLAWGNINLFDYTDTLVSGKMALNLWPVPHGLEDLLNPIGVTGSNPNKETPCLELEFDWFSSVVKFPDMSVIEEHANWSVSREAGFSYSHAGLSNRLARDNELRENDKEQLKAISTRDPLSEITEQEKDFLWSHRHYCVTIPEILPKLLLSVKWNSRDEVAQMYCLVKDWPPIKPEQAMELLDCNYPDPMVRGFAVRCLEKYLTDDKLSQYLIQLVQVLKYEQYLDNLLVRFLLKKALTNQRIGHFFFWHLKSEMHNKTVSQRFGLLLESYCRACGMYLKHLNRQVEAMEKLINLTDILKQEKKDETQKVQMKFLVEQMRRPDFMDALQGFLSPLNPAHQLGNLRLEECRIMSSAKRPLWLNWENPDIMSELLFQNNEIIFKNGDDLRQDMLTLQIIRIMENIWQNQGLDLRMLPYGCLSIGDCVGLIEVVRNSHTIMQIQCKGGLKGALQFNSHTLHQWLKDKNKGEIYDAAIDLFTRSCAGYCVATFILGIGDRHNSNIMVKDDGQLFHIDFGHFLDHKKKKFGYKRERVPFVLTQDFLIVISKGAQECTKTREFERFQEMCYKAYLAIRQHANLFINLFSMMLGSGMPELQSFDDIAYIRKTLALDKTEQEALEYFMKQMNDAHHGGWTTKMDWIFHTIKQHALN
test details: Inhibition of PI3Kalpha in human HL60 cell lysate by kinobead assay
pIC50: −log10 of the molar value.
readout type: pIC50

{"structure notation": "CNC(=O)CNC(=O)Nc1nc2ccc(-c3cncc(S(=O)(=O)NC(C)(C)C)c3)cn2n1", "readout type": "pIC50", "readout relation": "<", "test value": 4.80}
{"structure notation": "CC(C)(C)NS(=O)(=O)c1cncc(-c2ccc3nc(NC(=O)NCCc4ccccc4)nn3c2)c1", "readout type": "pIC50", "readout relation": "<", "test value": 5.50}
{"structure notation": "CC(C)(C)NS(=O)(=O)c1cncc(-c2ccc3nc(NC(=O)NCCc4cnccn4)nn3c2)c1", "readout type": "pIC50", "readout relation": "=", "test value": 5.90}
{"structure notation": "CC(C)(C)NS(=O)(=O)c1cncc(-c2ccc3nc(N)nn3c2)c1", "readout type": "pIC50", "readout relation": "=", "test value": 5.60}
{"structure notation": "CC(C)(C)NS(=O)(=O)c1cncc(-c2ccc3nc(NC(=O)NCCCn4nnc(C5CC5)n4)nn3c2)c1", "readout type": "pIC50", "readout relation": "<", "test value": 5.20}
{"structure notation": "CS(=O)(=O)c1cncc(-c2ccc3nc(N)nn3c2)c1", "readout type": "pIC50", "readout relation": "=", "test value": 5.00}
{"structure notation": "CC(C)(C)NS(=O)(=O)c1cncc(-c2ccc3nc(NC(=O)NCC(=O)N4CCCC4)nn3c2)c1", "readout type": "pIC50", "readout relation": "=", "test value": 6.00}
{"structure notation": "CC(C)(C)NS(=O)(=O)c1cncc(-c2ccc3nc(NC(=O)N4CCOCC4)nn3c2)c1", "readout type": "pIC50", "readout relation": "<", "test value": 4.60}
{"structure notation": "CC(C)(C)NS(=O)(=O)c1cncc(-c2ccc3nc(NC(=O)NCCN4CCOCC4)nn3c2)c1", "readout type": "pIC50", "readout relation": "=", "test value": 5.90}

====

Tested on: Liver microsomes
test details: Intrinsic clearance in human liver microsomes assessed per g of liver
Format: ADME, Microsome
Listing: CLint of selected compounds
readout type: CLint (mL/min/g)

{"structure notation": "CC(C)(C)NS(=O)(=O)c1cncc(-c2ccc3nc(NC(=O)NCC(=O)N4CCOCC4)nn3c2)c1", "test value": 0}
{"structure notation": "CC(C)(C)NS(=O)(=O)c1cncc(-c2ccc3nc(NC(=O)NCCn4nnc(C5CC5)n4)nn3c2)c1", "test value": 0}
{"structure notation": "CN(C)C(=O)CNC(=O)Nc1nc2ccc(-c3cncc(S(=O)(=O)NC(C)(C)C)c3)cn2n1", "test value": 0.5}
{"structure notation": "CC(C)(C)NS(=O)(=O)c1cncc(-c2ccc3nc(NC(=O)NCCN4CCOCC4)nn3c2)c1", "test value": 1.4}

====

# key: entry, value: pIC50
target desc: Phosphatidylinositol 4,5-bisphosphate 3-kinase catalytic subunit beta isoform (Homo sapiens, UniProt P42338)
Sequence (P42338 whole entry, canonical isoform): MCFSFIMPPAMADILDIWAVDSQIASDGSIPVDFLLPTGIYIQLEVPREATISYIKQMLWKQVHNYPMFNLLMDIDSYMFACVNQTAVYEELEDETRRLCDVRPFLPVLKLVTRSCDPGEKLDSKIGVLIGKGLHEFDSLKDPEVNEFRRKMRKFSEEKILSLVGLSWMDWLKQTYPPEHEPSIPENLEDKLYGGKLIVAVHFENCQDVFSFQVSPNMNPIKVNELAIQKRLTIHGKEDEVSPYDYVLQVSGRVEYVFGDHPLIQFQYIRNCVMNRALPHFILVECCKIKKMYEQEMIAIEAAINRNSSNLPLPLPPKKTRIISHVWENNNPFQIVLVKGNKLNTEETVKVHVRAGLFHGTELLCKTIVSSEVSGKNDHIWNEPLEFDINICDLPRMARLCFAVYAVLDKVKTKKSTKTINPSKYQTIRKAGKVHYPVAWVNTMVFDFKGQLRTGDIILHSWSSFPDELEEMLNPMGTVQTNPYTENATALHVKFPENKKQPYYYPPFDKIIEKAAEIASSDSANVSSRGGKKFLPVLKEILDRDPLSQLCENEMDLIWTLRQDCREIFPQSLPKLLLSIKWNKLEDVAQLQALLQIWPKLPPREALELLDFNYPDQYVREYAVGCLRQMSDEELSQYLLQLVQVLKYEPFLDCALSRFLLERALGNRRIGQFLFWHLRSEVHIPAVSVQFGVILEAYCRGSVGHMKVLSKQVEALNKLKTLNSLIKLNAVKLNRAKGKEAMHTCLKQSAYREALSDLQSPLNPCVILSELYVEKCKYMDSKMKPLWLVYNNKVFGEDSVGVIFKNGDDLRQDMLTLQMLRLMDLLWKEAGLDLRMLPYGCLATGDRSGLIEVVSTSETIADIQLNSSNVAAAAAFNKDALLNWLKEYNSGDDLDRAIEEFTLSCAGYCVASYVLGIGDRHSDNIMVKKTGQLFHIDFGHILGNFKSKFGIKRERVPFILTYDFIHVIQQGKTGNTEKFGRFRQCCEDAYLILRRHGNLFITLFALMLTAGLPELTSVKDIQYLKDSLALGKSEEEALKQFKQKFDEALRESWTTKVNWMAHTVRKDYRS
test details: Inhibition of PI3Kbeta in human HL60 cell lysate by kinobead assay
pIC50: −log10 of the molar value.
readout type: pIC50

{"structure notation": "CC(C)(C)NS(=O)(=O)c1cncc(-c2ccc3nc(NC(=O)NCCCn4nnc(C5CC5)n4)nn3c2)c1", "readout relation": "=", "test value": 5.60}
{"structure notation": "CC(C)(C)NS(=O)(=O)c1cncc(-c2ccc3nc(NC(=O)NCc4ccccc4)nn3c2)c1", "readout relation": "=", "test value": 5.50}
{"structure notation": "Cc1noc(C)c1CCNC(=O)Nc1nc2ccc(-c3cncc(S(=O)(=O)NC(C)(C)C)c3)cn2n1", "readout relation": "=", "test value": 7.10}
{"structure notation": "CN(C)C(=O)CNC(=O)Nc1nc2ccc(-c3cncc(S(=O)(=O)NC(C)(C)C)c3)cn2n1", "readout relation": "=", "test value": 5.90}
{"structure notation": "CC(C)(C)NS(=O)(=O)c1cncc(-c2ccc3nc(NC(=O)N4CCOCC4)nn3c2)c1", "readout relation": "=", "test value": 5.40}
{"structure notation": "CC(C)(C)NS(=O)(=O)c1cncc(-c2ccc3nc(NC(=O)NCCc4nnc(C5CC5)o4)nn3c2)c1", "readout relation": "=", "test value": 6.60}
{"structure notation": "CS(=O)(=O)c1cncc(-c2ccc3nc(N)nn3c2)c1", "readout relation": "=", "test value": 5.60}
{"structure notation": "CN(C)CCNC(=O)Nc1nc2ccc(-c3cncc(S(=O)(=O)NC(C)(C)C)c3)cn2n1", "readout relation": "<", "test value": 6.00}
{"structure notation": "CC(C)(C)NS(=O)(=O)c1cncc(-c2ccc3nc(NC(=O)NCCc4ccccc4)nn3c2)c1", "readout relation": "=", "test value": 6.00}

====

target desc: Phosphatidylinositol 4,5-bisphosphate 3-kinase catalytic subunit delta isoform (Homo sapiens, UniProt O00329)
Sequence (O00329 whole entry, canonical isoform): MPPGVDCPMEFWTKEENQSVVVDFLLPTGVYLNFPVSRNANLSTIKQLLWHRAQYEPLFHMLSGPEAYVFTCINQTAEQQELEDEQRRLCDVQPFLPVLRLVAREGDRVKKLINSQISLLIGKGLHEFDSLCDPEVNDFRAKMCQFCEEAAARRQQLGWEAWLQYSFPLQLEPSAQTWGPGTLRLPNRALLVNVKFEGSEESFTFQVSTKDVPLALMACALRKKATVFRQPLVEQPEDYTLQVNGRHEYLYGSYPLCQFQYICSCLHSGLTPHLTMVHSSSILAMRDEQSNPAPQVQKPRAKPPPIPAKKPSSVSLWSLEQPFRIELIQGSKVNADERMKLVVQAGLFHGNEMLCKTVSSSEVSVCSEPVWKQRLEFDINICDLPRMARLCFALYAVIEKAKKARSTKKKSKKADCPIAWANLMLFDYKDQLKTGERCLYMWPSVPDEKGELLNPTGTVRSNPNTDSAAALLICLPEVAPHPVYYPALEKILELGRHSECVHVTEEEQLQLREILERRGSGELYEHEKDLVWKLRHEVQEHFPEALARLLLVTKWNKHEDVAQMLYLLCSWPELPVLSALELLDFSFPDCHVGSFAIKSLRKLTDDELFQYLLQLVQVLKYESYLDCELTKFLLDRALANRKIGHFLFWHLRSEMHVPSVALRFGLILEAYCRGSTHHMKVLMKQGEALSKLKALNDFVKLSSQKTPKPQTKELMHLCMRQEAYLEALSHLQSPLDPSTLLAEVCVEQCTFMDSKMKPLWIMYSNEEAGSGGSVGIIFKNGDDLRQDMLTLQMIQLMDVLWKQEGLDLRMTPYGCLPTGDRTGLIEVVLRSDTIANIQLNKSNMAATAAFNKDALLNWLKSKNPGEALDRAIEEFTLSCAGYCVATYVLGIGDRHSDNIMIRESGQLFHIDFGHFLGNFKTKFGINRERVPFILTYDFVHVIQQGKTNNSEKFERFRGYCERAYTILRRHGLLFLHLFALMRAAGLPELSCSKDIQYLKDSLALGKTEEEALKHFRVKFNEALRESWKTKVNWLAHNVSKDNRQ
test details: Inhibition of PI3Kdelta in human HL60 cell lysate by kinobead assay
pIC50: −log10 of the molar value.
# pIC50 per entry
readout type: pIC50

{"structure notation": "CC(C)(C)NS(=O)(=O)c1cncc(-c2ccc3nc(NC(=O)NCC(=O)N4CCOCC4)nn3c2)c1", "readout type": "pIC50", "test value": 7.80}
{"structure notation": "CN(C)CCNC(=O)Nc1nc2ccc(-c3cncc(S(=O)(=O)NC(C)(C)C)c3)cn2n1", "readout type": "pIC50", "test value": 5.90}
{"structure notation": "Cc1nc(CCNC(=O)Nc2nc3ccc(-c4cncc(S(=O)(=O)NC(C)(C)C)c4)cn3n2)cs1", "readout type": "pIC50", "test value": 7.80}
{"structure notation": "CC(C)(C)NS(=O)(=O)c1cncc(-c2ccc3nc(NC(=O)N4CCOCC4)nn3c2)c1", "readout type": "pIC50", "test value": 5.50}
{"structure notation": "CC(C)(C)NS(=O)(=O)c1cncc(-c2ccc3nc(NC(=O)NCCc4ccccc4)nn3c2)c1", "readout type": "pIC50", "test value": 7.60}
{"structure notation": "CC(C)(C)NS(=O)(=O)c1cncc(-c2ccc3nc(NC(=O)NCCCn4nnc(C5CC5)n4)nn3c2)c1", "readout type": "pIC50", "test value": 7.30}
{"structure notation": "CC(C)(C)NS(=O)(=O)c1cncc(-c2ccc3nc(NC(=O)NCCn4nnc(C5CC5)n4)nn3c2)c1", "readout type": "pIC50", "test value": 8.20}
{"structure notation": "CC(C)(C)NS(=O)(=O)c1cncc(-c2ccc3nc(N)nn3c2)c1", "readout type": "pIC50", "test value": 5.80}
{"structure notation": "CNC(=O)CNC(=O)Nc1nc2ccc(-c3cncc(S(=O)(=O)NC(C)(C)C)c3)cn2n1", "readout type": "pIC50", "test value": 6.10}

====

target desc: Phosphatidylinositol 4,5-bisphosphate 3-kinase catalytic subunit delta isoform (Homo sapiens, UniProt O00329)
test details: Inhibition of PI3Kdelta in human HL60 cell lysate by kinobead assay
Reported IC50 values for a set of molecules

{"structure notation": "CC(C)(C)NS(=O)(=O)c1cncc(-c2ccc3nc(NC(=O)NCCn4cccn4)nn3c2)c1", "readout relation": "=", "IC50 [µM]": 0.2}
{"structure notation": "CC(C)(C)NS(=O)(=O)c1cncc(-c2ccc3nc(NC(=O)NCC(=O)N4CCCC4)nn3c2)c1", "readout relation": "=", "IC50 [µM]": 0.0631}
{"structure notation": "CS(=O)(=O)c1cncc(-c2ccc3nc(N)nn3c2)c1", "readout relation": "=", "IC50 [µM]": 6.31}
{"structure notation": "CNC(=O)Nc1nc2ccc(-c3cncc(S(=O)(=O)NC(C)(C)C)c3)cn2n1", "readout relation": "=", "IC50 [µM]": 0.794}
{"structure notation": "CC(C)(C)NS(=O)(=O)c1cncc(-c2ccc3nc(NC(=O)NCc4ccccc4)nn3c2)c1", "readout relation": "=", "IC50 [µM]": 1.58}
{"structure notation": "CC(C)(C)NS(=O)(=O)c1cncc(-c2ccc3nc(NC(=O)Nc4ccccc4)nn3c2)c1", "readout relation": ">", "IC50 [µM]": 25.1}
{"structure notation": "Cc1noc(C)c1CCNC(=O)Nc1nc2ccc(-c3cncc(S(=O)(=O)NC(C)(C)C)c3)cn2n1", "readout relation": "=", "IC50 [µM]": 0.0126}
{"structure notation": "CN1CCN(C(=O)CNC(=O)Nc2nc3ccc(-c4cncc(S(=O)(=O)NC(C)(C)C)c4)cn3n2)CC1", "readout relation": "=", "IC50 [µM]": 0.0126}
{"structure notation": "CN(C)C(=O)CNC(=O)Nc1nc2ccc(-c3cncc(S(=O)(=O)NC(C)(C)C)c3)cn2n1", "readout relation": "=", "IC50 [µM]": 0.0794}
